The measured values listed here are drawn from patent US20210032351A1.

molecular target: T1, human EGFRvIII-hFc protein (human, UniProt P00533 25-645); test: ELISA, coated EGFRvIII-hFc, antibody 10 nM
T1 construct: extracellular domain; made in HEK293 cells, purified on protein A; also called immunogen A; hFc-tagged EGFRvIII protein; not shown: human IgG Fc fragment (hFc) of the pCpC vector
observed-property: OD450 nm

binder: Murine anti-59G3 (antibody, V domains shown, murine hybridoma antibody; also called 59G3F12) VH: DVQLQESGPGLVKPSQSLSLTCSVTGYSITSGYYWHWIRQFPENKLEWMGYISYDGSNIYNPSLKNRISITRDTSKNQFFLKLNSVTTEDTATYYCAINSDYALDYWGQGTSVTVSS VL: QIVLTQSPAIMSASPGEKVTMTCSASSSVSYMYWYQQKPGSSPRLLIYDTSNLASGVPVRFSGSGSGTSYSLTISRMEAEDAATYYCQQWSSYSLTFGAGTKLELK
observed: 3.67
